Target: sOGT (Homo sapiens, UniProt O15294)
Construct: ncOGT and sOGT are identical to known splice variants; His8 (C)
Sequence (O15294 382-1046): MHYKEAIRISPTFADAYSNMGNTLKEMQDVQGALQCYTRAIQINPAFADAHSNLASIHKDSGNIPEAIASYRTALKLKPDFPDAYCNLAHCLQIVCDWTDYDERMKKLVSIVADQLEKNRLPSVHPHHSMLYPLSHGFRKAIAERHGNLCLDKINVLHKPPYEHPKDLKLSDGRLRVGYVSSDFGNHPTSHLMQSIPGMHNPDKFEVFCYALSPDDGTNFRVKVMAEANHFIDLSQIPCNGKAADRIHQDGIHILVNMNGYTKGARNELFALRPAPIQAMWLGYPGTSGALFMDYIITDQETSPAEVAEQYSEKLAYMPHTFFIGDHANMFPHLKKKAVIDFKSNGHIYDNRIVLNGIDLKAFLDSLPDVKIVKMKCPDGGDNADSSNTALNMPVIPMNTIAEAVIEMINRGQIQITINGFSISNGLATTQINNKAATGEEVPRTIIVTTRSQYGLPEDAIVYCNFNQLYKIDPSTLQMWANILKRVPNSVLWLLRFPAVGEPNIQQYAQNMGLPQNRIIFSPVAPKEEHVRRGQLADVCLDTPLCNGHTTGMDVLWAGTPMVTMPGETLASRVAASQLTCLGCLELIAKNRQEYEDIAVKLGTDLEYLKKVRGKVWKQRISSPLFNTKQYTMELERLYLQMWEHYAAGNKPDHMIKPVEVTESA
Experiment: Fluorescence polarization displacement of probe 3 from sOGT (validation with UDP and UDP-GlcNAc)
Details: 50 nM probe 3, […] sOGT, ligand 50 μM to 98 nM; read-out: KD (dissociation constant) from displacement of probe 3 from sOGT
MEASURED_METRIC: pKd
Notebook: values listed as pKd are -log10 of the concentration (mol/L).

Query string: GET /values?readout=pKd&item= `O=c1ccn([C@@H]2O[C@H](COP(=O)(O)OP(=O)(O)O)[C@@H](O)[C@H]2O)c(=O)[nH]1`
Result string: 6.10
